Molecular target: SHP2 (Homo sapiens, UniProt Q06124)
Sequence (Q06124 whole entry): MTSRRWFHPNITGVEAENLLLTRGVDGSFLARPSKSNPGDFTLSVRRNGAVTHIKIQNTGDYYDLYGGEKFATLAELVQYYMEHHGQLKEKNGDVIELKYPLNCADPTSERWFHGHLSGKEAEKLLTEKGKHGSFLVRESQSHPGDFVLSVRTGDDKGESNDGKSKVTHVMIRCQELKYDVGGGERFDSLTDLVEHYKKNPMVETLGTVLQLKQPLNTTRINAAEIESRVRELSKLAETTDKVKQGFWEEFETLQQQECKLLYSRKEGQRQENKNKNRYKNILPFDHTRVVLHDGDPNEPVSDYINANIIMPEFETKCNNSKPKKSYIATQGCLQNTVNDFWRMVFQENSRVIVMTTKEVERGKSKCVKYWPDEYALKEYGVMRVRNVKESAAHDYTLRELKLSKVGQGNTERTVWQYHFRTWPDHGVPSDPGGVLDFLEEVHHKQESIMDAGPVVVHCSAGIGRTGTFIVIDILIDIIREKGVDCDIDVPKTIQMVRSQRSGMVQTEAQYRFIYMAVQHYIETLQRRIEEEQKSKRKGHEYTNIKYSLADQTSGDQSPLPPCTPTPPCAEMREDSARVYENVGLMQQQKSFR
Assay: SHP2 Allosteric Inhibition Assay
Format: biochemical
Settings: 0.5 nM SHP2 activated with 0.5 μM peptide IRS1_pY1172(dPEG8)pY1222; surrogate substrate DiFMUP, prompt fluorescence, 25° C.
Description: SHP2 Allosteric Inhibition Assay SHP2 is allosterically activated through binding of bis-tyrosyl-phorphorylated peptides to its Src Homology 2 (SH2) domains. […] The catalytic activity of SHP2 was monitored using the surrogate substrate DiFMUP in a prompt fluorescence assay format. […]
Each record's AC50 is compared with bin 1: < 50 nM; bin 2: ≥ 50 nM and < 100 nM; bin 3: ≥ 100 nM to give its class.

                                    compound  assigned_label
 0  N[C@@H]1CCCC12CCN(c1cnc(Sc3cccc(S(F)(F)(F)(F)F)c3)cn1)CC2           bin 3
 1  N[C@@H]1CCCC12CCN(c1cnc(Sc3cccc(Br)c3)cn1)CC2           bin 2
 2  C[C@@H]1OCC2(CCN(c3cnc(Sc4cccc(O)c4)cn3)CC2)[C@@H]1N           bin 2
 3  N[C@@H]1CCCC12CCN(c1cnc(Sc3ccnc4c3CCC4)cn1)CC2           bin 1
 4  N[C@@H]1CCCC12CCN(c1cnc(Sc3ccccc3)cn1)CC2           bin 2
 5  NCC1(c2ccccn2)CCN(c2cnc(Sc3ccnc(N)c3Cl)cn2)CC1           bin 1
 6  Nc1nccc(Sc2cnc(N3CCC4(CC3)COC[C@H]4N)cn2)c1Cl           bin 1
 7  N[C@@H]1CCCC12CCN(c1cnc(Sc3ccccc3F)cn1)CC2           bin 1
 8  C[C@@H]1OCC2(CCN(c3cnc(Sc4cccc(CO)c4)cn3)CC2)[C@@H]1N           bin 1
 9  N[C@@H]1CCCC12CCN(c1cnc(Sc3c(F)c(F)cc(F)c3F)cn1)CC2           bin 3
10  Nc1nccc(Sc2cnc(N3CCC4(CCCCN4)CC3)cn2)c1Cl           bin 3
11  CC1(CN)CCN(c2cnc(Sc3ccnc(N)c3Cl)cn2)CC1O (single isomer, unassigned) [Example 52]           bin 3
12  CCOc1cccc(Sc2cnc(N3CCC4(CCC[C@H]4N)CC3)cn2)c1           bin 2
13  N[C@@H]1COCC12CCN(c1cnc(Sc3cccnc3C(F)(F)F)cn1)CC2           bin 2
14  NC1=NC2(CCN(c3cnc(Sc4ccnc(Cl)c4Cl)cn3)CC2)CO1           bin 1
15  N[C@@H]1COCC12CCN(c1cnc(Sc3ccncc3Cl)cn1)CC2           bin 1
